Molecular target: furin, P09958;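 further: purified furin at 1:10 enzyme:substrate in 50 mM HEPES pH 7.5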
Sequence (P09958 whole entry): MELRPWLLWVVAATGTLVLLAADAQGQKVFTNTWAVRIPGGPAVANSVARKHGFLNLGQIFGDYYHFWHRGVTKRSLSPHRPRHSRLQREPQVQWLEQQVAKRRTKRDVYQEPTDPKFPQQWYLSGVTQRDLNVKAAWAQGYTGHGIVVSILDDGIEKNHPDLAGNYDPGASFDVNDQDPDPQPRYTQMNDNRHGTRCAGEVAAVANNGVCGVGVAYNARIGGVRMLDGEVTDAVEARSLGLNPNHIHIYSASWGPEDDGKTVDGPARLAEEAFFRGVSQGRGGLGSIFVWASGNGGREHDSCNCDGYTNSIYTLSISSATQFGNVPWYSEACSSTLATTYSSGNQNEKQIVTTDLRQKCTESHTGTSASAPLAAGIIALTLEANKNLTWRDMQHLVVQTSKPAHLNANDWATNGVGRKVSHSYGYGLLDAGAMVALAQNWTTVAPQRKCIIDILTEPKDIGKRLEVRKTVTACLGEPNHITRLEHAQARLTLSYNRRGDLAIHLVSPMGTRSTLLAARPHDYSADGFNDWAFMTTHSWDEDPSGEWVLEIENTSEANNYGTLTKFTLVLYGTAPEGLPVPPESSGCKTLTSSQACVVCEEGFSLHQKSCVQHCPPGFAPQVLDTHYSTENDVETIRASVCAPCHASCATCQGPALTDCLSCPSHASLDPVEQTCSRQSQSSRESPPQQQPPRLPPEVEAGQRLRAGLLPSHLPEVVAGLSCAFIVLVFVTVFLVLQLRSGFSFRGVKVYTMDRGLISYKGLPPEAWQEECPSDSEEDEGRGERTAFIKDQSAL
Assay: furin cleavage Z-score vs untreated control; higher = more cleavage, active = 3.5 or more, inactive = 1 or less, 8 variable residues between constant flanks
Details: 15 min
The other results are listed elsewhere or left out. How many sequences the whole screen found active is unknown.
measurementLabel: furin cleavage Z-score
Just the number, please, no unit attached.

Req: If you can, please state the reported furin cleavage Z-score value of CASLHLKKRIAGNASASA [FS-625] .
Resp: -1.61

Req: Consider next the sequence CALAQRQRRIAGNASASA [FS-347] in the same way.
Resp: -0.423

Req: Consider next the sequence CAIYCRKKRIAGNASASA [FS-806] in the same way.
Resp: 0.629

Req: Consider next the sequence CARLRDSGRAAGNASASA [FS-85] in the same way.
Resp: -1.47

Req: Consider next the sequence CAGVWRVDGIAGNASASA [HC1169] in the same way.
Resp: 0.416

Req: Consider next the sequence CATTPASGSWAGNASASA [HC41] in the same way.
Resp: -1.61
